Molecular target: human A2a receptor (Homo sapiens)
Construct: purchased Perkin-Elmer RBHA2AM400UA; host or cells: HEK293 cells, used as a membrane preparation
Sequence (P29274 whole entry): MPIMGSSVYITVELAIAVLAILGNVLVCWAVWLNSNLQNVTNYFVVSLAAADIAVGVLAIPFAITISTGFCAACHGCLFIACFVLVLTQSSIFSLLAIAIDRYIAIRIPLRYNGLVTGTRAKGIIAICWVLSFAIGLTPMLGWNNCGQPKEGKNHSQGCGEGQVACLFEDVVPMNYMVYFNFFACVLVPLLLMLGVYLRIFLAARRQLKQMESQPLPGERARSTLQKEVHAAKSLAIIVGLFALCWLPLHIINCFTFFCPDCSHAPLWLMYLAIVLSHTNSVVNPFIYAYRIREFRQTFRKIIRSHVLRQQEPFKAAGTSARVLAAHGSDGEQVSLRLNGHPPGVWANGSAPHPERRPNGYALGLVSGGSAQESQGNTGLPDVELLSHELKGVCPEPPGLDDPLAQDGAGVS
Assay: A2a receptor competition binding assay (Scintillation Proximity)
Settings: membranes from HEK293 cells expressing human A2a receptor; 0.5 nM tritiated ligand; Cheng-Prusoff; read-out: A2a Ki
hey, just use y if measured Ki is less than 50 nM, otherwise n

Here's an entry: `Nc1nc2c(F)cccc2c2nc(C(=O)N3CCc4cccc(CN5CCN(c6ccccn6)CC5)c4C3)cn12` . Is its Ki below 50 nM?
n

Note, next up: `Nc1nc2c(F)cccc2c2nc(Cc3cc(F)ccc3O)cn12`
y

Note, next up: Nc1nc2c(F)cccc2c2nc(C(=O)N3CCC4(CCN(CCc5ccc(F)cc5)C4)C3)cn12 (stereo not drawn)
n

Note, next up: `COc1cccc2c1nc(N)n1cc(C(=O)N3CCC4(CCCC4)CC3)nc21`
y

Note, next up: `CC(=O)N1CCc2ccc(Cc3cn4c(N)nc5c(F)cccc5c4n3)cc2C1`
y

Note, next up: `COc1cccc2c1nc(N)n1cc(C(=O)N3C[C@@H](C)O[C@@H](C)C3)nc21`
n

Note, next up: `COc1cccc2c1nc(N)n1cc(C(=O)N3CCOC(C)(C)C3)nc21`
n

Note, next up: COc1cccc2c1nc(N)n1cc(C(=O)N3CC(C)CC(C)C3)nc21 (stereo not drawn)
y

Note, next up: `COc1cccc2c1nc(N)n1cc(C(=O)N3CCC(F)(F)C3)nc21`
y
